# system-tested: D1 receptor (Homo sapiens, UniProt P21728)
# Construct: expressed in transfected cells; host or cells: D1 transfected CHO cell line
# Sequence (P21728 whole entry): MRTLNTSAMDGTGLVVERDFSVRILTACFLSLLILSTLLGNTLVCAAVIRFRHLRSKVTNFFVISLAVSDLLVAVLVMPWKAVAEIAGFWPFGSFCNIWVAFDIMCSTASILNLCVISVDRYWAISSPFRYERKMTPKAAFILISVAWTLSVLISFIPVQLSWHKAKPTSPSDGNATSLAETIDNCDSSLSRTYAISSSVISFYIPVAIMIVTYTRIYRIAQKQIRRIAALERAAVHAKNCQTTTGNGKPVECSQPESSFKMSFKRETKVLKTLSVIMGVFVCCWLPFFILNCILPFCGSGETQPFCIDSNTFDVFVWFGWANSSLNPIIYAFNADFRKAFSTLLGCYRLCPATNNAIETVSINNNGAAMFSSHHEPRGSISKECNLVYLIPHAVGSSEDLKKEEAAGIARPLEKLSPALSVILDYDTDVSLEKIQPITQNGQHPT
# test-method-notes: D1 Activation Adenylyl Cyclase Assay (cAMP FlashPlate, D1 transfected CHO cell line)
# Type: cell-based
# condition-label: agonist activity at the D1 receptor, adenylate cyclase assay, D1 transfected CHO cell line; read-out: D1 EC50
Counter-ions that a name gives are not always drawn.
assay-metric: EC50 (nM)
The reply should contain only the number, in nM.

Observe how each entry below is paired with its result.
compound: Cc1ccc2c(c1O)C[C@@H](C1CCN(Cc3cc(C(F)(F)F)ccc3Cl)CC1)O[C@H]2CN [Example 77, dihydrochloride]
observed: 80
//
compound: Cc1ccc2c(c1O)C[C@@H](C1CCN(S(=O)(=O)CCc3cccc4ccccc34)CC1)O[C@H]2CN [Example 159, hydrochloride]
observed: 35
//
compound: Cc1cccc(CN2CCC([C@@H]3Cc4c(ccc(C)c4O)[C@H](CN)O3)CC2)c1 [Example 65, dihydrochloride]
observed: 11

Suppose we examine the compound Cc1ccc2c(c1O)C[C@@H](C1CCN(Cc3nc4ccccc4n3C)CC1)O[C@H]2CN [Example 92, trihydrochloride] ; what EC50 value has been reported? 0.98

Another compound to check: Cc1ccc2c(c1O)C[C@@H](C1CCN(Cc3ccc4ccccc4n3)CC1)O[C@H]2CN [Example 55, dihydrochloride] 16

Another compound to check: Cc1ccc(C(=O)NC(C)CCN2CCC([C@@H]3Cc4c(ccc(C)c4O)[C@H](CN)O3)CC2)cc1 (some centres unmarked) [Example 15, dihydrochloride] 11

Another compound to check: Cc1ccc2c(c1O)C[C@@H](C1CCN(S(=O)(=O)Cc3ccccc3[N+](=O)[O-])CC1)O[C@H]2CN [Example 158, hydrochloride] 11

Another compound to check: Cc1ccc2c(c1O)C[C@@H](C1CCN(C3Cc4ccccc4C3)CC1)O[C@H]2CN [Example 32, dihydrobromide] 12

Another compound to check: Cc1ccc2c(c1O)C[C@@H](C1CCN(CCC(C)NC(=O)c3cc4ccccc4s3)CC1)O[C@H]2CN (some centres unmarked) [Example 20, dihydrochloride] 61

Another compound to check: Cc1ccc2c(c1O)C[C@@H](C1CCN(Cc3sc4ccccc4c3C)CC1)O[C@H]2CN [Example 86, dihydrochloride] 77

Another compound to check: Cc1ccc2c(c1O)C[C@@H](C1CCN(Cc3ccoc3)CC1)O[C@H]2CN [Example 71, hydrochloride] 420

Another compound to check: CNC[C@@H]1O[C@H](C2CCN(Cc3ccc(C(C)C)cc3)CC2)Cc2c1ccc(C)c2O [Example 97, dihydrochloride] 66

Another compound to check: CNC[C@@H]1O[C@H](C2CCN(Cc3ccc(C)cc3)CC2)Cc2c1ccc(C)c2O [Example 101, dihydrochloride] 33

Another compound to check: Cc1ccc2c(c1O)C[C@@H](C1CCN(C/C=C/c3ccccc3)CC1)O[C@H]2CN [Example 109, dihydrobromide] 102
